Ref: ChEMBL document CHEMBL1123226

Hi there, I'd appreciate the recorded pIC50 for every entry that follows.
Reminder that pIC50 is minus the log10 of a molar concentration.

Task item: Record CN(Cc1cnc2nc(N)nc(N)c2n1)c1ccc(C(=O)NCCCC(=O)NCCCC(=O)NCCCC(=O)NC(CCC(=O)O)C(=O)O)cc1 (stereo not drawn) : what is its pIC50 with Dihydrofolate reductase (Mus musculus)?
Reply: 6.51

Task item: Form field - read-out: pIC50; system: Dihydrofolate reductase (Mus musculus); submitted item: CN(Cc1cnc2nc(N)nc(N)c2n1)c1ccc(C(=O)NCCCC(=O)NCCCC(=O)NC(CCC(=O)O)C(=O)O)cc1 (stereo not drawn)
Reply: 7.05

Task item: Provide value of pIC50 for this record tested with Dihydrofolate reductase (Mus musculus): CN(Cc1cnc2nc(N)nc(N)c2n1)c1ccc(C(=O)NCCCC(=O)NCCCC(=O)NCCCC(=O)NCCCC(=O)NC(CCC(=O)O)C(=O)O)cc1 (stereo not drawn)
Reply: 6.27

---

- SYSTEM NAME: Dihydrofolate reductase (Mus musculus) (UniProt P00375)
- Sequence (whole entry): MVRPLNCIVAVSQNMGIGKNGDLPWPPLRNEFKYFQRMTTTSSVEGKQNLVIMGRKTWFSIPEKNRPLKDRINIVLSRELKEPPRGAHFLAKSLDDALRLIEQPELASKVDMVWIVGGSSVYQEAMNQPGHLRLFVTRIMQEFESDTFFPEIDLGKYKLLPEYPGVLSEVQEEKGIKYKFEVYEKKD
- PARTICULARS: L1210
- Description: Compound was tested for its ability to inhibit dihydrofolate reductase purified from murine L1210 cells, activity expressed as IC50/[E]
With a cut-off of 1, any IC50/[E] strictly below it is called met; any IC50/[E] meeting it or above is called not met.

Task item: Bench note: check whether CN(Cc1cnc2nc(N)nc(N)c2n1)c1ccc(C(=O)NCCCC(=O)NCCCC(=O)NC(CCC(=O)O)C(=O)O)cc1 (stereo not given) shows IC50/[E] below 1
Reply: not met

Task item: Item CN(Cc1cnc2nc(N)nc(N)c2n1)c1ccc(C(=O)NCCCC(=O)NCCCC(=O)NCCCC(=O)NCCCC(=O)NC(CCC(=O)O)C(=O)O)cc1 (stereo not given) : IC50/[E] beneath 1, strictly?
Reply: not met

Task item: Hi there! Is IC50/[E] for CN(Cc1cnc2nc(N)nc(N)c2n1)c1ccc(C(=O)NCCCC(=O)NCCCC(=O)NCCCC(=O)NCCCC(=O)NCCCC(=O)NC(CCC(=O)O)C(=O)O)cc1 (stereo not given) below 1, do you know?
Reply: not met

Task item: Please indicate whether the reported IC50/[E] of CN(Cc1cnc2nc(N)nc(N)c2n1)c1ccc(C(=O)NCCCC(=O)NC(CCC(=O)O)C(=O)O)cc1 (stereo not given) is strictly below 1.
Reply: met

Task item: is_below(IC50/[E], 1) for CN(Cc1cnc2nc(N)nc(N)c2n1)c1ccc(C(=O)NCCCC(=O)NCCCC(=O)NCCCC(=O)NC(CCC(=O)O)C(=O)O)cc1 (stereo not given) ?
Reply: not met
